Molecular target: Anti-CD28 scFv (VH-linker 1-VL) (biotinylated for capture on neutravidin plates)
Sequence (scFv, as listed by the source): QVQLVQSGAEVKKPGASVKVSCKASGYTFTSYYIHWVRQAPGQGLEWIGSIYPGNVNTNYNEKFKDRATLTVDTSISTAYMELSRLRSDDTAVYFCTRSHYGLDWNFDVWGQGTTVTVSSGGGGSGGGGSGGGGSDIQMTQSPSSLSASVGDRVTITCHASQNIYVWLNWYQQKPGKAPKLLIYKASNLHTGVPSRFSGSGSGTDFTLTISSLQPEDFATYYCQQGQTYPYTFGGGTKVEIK
Experiment: phage ELISA, scFv captured on plate;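 further: crude clonal phage supernatants added to wells preincubated with soluble CD28 or with blocking buffer only, bound phage read out by HRP-linked anti-M13 antibody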
MEASURED_PARAMETER: Phage binding ELISA CD28 scFv signal

>>> result_value("MDWCPTDMWIVCFA [Phage-208]")
1.5
>>> result_value("MDWCPSDMWHECYA [Phage-194]")
2.47
>>> result_value("DVWCPKYMWSLCFN [Phage-192]")
2.53
>>> result_value("MDWCPMNLWSECFN [Phage-173]")
0.67
>>> result_value("MHWCPLHLWNECYH [Phage-155]")
1.37
>>> result_value("MDWCPRHLWNVCFS [Phage-150]")
1.61
>>> result_value("MDWCPKDLWHECFN [Phage-168]")
0.762
>>> result_value("MDWCPVILWDFCFN [Phage-142]")
2.03
>>> result_value("MHWCPRSLWNECYF [Phage-182]")
0.456
>>> result_value("MDWCPSYLWTVCFA [Phage-129]")
2.34
>>> result_value("MDWCPKYLWDKCFH [Phage-152]")
1.54
>>> result_value("MHWCPRALWHECFN [Phage-160]")
1.18
>>> result_value("MDWCPRYLWFECFS [Phage-117]")
2.46
>>> result_value("MNWCPSHLWHMCYF [Phage-171]")
0.702
>>> result_value("MDWCPKHLWIECFA [Phage-145]")
1.98
>>> result_value("MDWCPMDLWDVCFN [Phage-140]")
2.15
>>> result_value("MDWCPAYLWAECFS [Phage-175]")
0.64
>>> result_value("MHWCPINLWNECFS [Phage-184]")
0.316
>>> result_value("MDWCPRALWNECFA [Phage-127]")
2.38
>>> result_value("MDWCPTYLWFECFN [Phage-132]")
2.33
>>> result_value("MDWCPRDLWAVCFA [Phage-149]")
1.67

Numbers sourced from patent US20230357447A1.
